Cited source for all entries: the supplement of paper PMC11196671

assay: PET hydrolysis product formed (TPA+MHET+BHET, UV-Vis) per mg enzyme (mmol/mg enzyme); higher = more PET depolymerisation activity; extreme values may be limits of the assay; conditions: PET substrate: aFilm; 60 °C; pH 6.5; 24 h
quantity_kind: PET hydrolysis product formed
Kindly provide the number alone.

| sequence_content | PET hydrolysis product formed |
| --- | --- |
| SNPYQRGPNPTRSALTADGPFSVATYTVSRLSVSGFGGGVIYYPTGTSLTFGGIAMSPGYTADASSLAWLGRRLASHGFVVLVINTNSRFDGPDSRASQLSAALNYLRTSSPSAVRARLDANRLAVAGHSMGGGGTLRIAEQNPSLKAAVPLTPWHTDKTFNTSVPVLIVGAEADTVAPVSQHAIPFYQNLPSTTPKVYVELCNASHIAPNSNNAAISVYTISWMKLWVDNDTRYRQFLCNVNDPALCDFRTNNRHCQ [LCC-ICCG] | 0.327 |

Consider the sequence shown here: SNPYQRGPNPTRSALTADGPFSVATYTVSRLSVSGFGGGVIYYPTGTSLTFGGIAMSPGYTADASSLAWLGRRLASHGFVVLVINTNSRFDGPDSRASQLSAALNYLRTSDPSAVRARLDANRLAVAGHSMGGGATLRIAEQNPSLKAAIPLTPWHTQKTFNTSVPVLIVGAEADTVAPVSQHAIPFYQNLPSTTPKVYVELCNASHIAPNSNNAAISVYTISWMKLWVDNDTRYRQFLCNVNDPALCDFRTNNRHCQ [LCC-ICCG DAQI] What is its recorded PET hydrolysis product formed?
0.232

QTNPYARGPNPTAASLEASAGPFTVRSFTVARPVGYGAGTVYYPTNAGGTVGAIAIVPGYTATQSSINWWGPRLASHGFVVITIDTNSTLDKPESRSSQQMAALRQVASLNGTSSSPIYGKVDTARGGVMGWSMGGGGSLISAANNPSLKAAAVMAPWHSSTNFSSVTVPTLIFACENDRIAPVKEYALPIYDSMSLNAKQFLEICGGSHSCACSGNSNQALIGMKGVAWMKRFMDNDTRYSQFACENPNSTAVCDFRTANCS [HotPETase] , same question.
0.172

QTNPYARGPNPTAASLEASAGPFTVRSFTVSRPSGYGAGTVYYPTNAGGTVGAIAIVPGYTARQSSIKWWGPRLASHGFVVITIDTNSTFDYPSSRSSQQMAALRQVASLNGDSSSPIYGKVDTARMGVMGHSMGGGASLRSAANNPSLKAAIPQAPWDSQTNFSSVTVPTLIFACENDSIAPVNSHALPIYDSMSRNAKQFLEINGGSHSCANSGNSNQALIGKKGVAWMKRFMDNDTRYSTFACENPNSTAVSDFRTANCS [DuraPETase] , same question.
0
